All values here come from ChEMBL document CHEMBL5058577.

Test system: U2OS
Test: Multiplex assay against U2OS
Type: toxicity, cell-based
Conditions: human, 48 h, 1 µM, compound concentration 1 uM, replicate 1
Reported Population Mitochondria Different-Phenotype (%) by item:
Just the number please, in %, no unit attached.

Reference set, count: 3
compound: CC(C)COc1ccc(CNC(=O)N(Cc2ccc(F)cc2)C2CCN(C)CC2)cc1
numeric_readout: 5

compound: CCCCCC(O)/C=C/[C@H]1C(=O)CC(O)C1C/C=C\CCCC(=O)O (some centres undefined)
numeric_readout: 3

compound: COC[C@@H](c1ccc(C(F)(F)F)cc1)N1CCN(C2(C)CCN(C(=O)c3c(C)ncnc3C)CC2)C[C@@H]1C.O=C(O)/C=C\C(=O)O [VICRIVIROC MALEATE]
numeric_readout: 2

Value of Population Mitochondria Different-Phenotype (%) reported for the compound `Cc1noc(-c2ccc(-c3ccc(CC(=O)O)cc3)cc2)c1NC(=O)O[C@H](C)c1ccccc1Cl` is 3

* * *

Tested on: HEK-293T
Experiment: Multiplex assay against HEK293T
Assay type: toxicity, cell-based
Details: human, 24 h, 10 µM, compound concentration 10 uM, replicate 2
Reported Population Apoptotic (%) by item:
Just the number please, in %, no unit attached.

Reference set, count: 2
compound: C[C@H](N)COC(=O)[C@@H](CCCCN)NC(=O)Cc1c(-c2ccc3ccccc3c2)[nH]c2c1ccc1ccccc12
unit_descriptor: %
Population Apoptotic (%): 48
//
compound: Cc1cccc(NC(=O)CN2CCC(c3ccccn3)CC2)c1.Cl.Cl
unit_descriptor: %
Population Apoptotic (%): 50

# ---- query compound ----
Simply: `NCCc1cn(S(=O)(=O)c2c(Cl)nc3sccn23)c2ccccc12.O=C(O)C(=O)O` , HEK-293T, Population Apoptotic (%) = 75

* * *

System: U2OS
Test: Multiplex assay against U2OS
Assay type: toxicity, cell-based
Settings: human, 48 h, 1 µM, compound concentration 1 uM, replicate 2
Param label: returns criterion met when Population Membrane Permeable-Phenotype (%) < 7%, returns criterion not met otherwise, including exact equality.

Some solved entries appear below for comparison.
molecule: CC(C)c1noc(N2CCC(COc3ccc(-c4ccc(S(C)(=O)=O)cc4)nc3)CC2)n1
class_label: criterion met
--
molecule: Cc1c(CC(=O)O)c2cccnc2n1Cc1ccc(S(C)(=O)=O)cc1C(F)(F)F
class_label: criterion not met
--
molecule: Cc1cccc(NC(=O)CN2CCC(c3ccccn3)CC2)c1.Cl.Cl
class_label: criterion met
--
molecule: CCCCC1=NC2(CCCC2)C(=O)N1Cc1ccc(-c2ccccc2-c2nnn[nH]2)cc1
class_label: criterion met
--
molecule: CC[C@@H](C)Nc1nc(C)nc2c(-c3ccc(OC)nc3C)c(C)nn12
class_label: criterion met

Given COC[C@@H](c1ccc(C(F)(F)F)cc1)N1CCN(C2(C)CCN(C(=O)c3c(C)ncnc3C)CC2)C[C@@H]1C.O=C(O)/C=C\C(=O)O [VICRIVIROC MALEATE] , is recorded Population Membrane Permeable-Phenotype (%) strictly lower than 7%?
criterion not met

Given `N#Cc1c(Oc2cccc(OS(=O)(=O)CCCC(F)(F)F)c2)cccc1C(F)(F)F` , is recorded Population Membrane Permeable-Phenotype (%) strictly lower than 7%?
criterion not met

Given `NCCc1cn(S(=O)(=O)c2c(Cl)nc3sccn23)c2ccccc12.O=C(O)C(=O)O` , is recorded Population Membrane Permeable-Phenotype (%) strictly lower than 7%?
criterion not met

* * *

Tested on: Fibroblast
Assay: Multiplex assay against human fibroblast
Format: toxicity, cell-based
Settings: 12 h, 1 µM, compound concentration 1 uM, replicate 2
Assign satisfied whenever Population Fragmented Nuclei (%) does not fall below 30%; assign not satisfied whenever it does.

Some solved entries appear below for comparison.
compound: CN1CCN(c2cc(-c3ccccc3)nc(N)n2)CC1
target_under_test: Fibroblast
class_label: not satisfied
--
compound: C[C@H](N)COC(=O)[C@@H](CCCCN)NC(=O)Cc1c(-c2ccc3ccccc3c2)[nH]c2c1ccc1ccccc12
target_under_test: Fibroblast
class_label: not satisfied

Please check the record `CCCCC1=NC2(CCCC2)C(=O)N1Cc1ccc(-c2ccccc2-c2nnn[nH]2)cc1` and state if its Population Fragmented Nuclei (%) is at or above 30%.
not satisfied

Please check the record `CCc1cc2cc(NS(=O)(=O)c3ccc(C#N)cc3)ccc2n(CC)c1=O` and state if its Population Fragmented Nuclei (%) is at or above 30%.
not satisfied

Please check the record `COc1cccc2c1c(NS(=O)(=O)c1ccc(Cl)s1)nn2Cc1cccc(CNC(=O)C(C)(C)O)c1` and state if its Population Fragmented Nuclei (%) is at or above 30%.
not satisfied

Please check the record Cl.N=C(N)NC(=O)Cc1c(Cl)cccc1Cl [GUANFACINE HYDROCHLORIDE] and state if its Population Fragmented Nuclei (%) is at or above 30%.
not satisfied

Please check the record CCCCCC(O)/C=C/[C@H]1C(=O)CC(O)C1C/C=C\CCCC(=O)O (some centres undefined) and state if its Population Fragmented Nuclei (%) is at or above 30%.
satisfied

Please check the record `Cc1cnc(-c2cc(N3CCN(C(=O)CCS(C)(=O)=O)CC3)ncc2Cl)c(C)c1` and state if its Population Fragmented Nuclei (%) is at or above 30%.
not satisfied

Please check the record Cl.NCCc1ccc(O)c(O)c1 [DOPAMINE HYDROCHLORIDE] and state if its Population Fragmented Nuclei (%) is at or above 30%.
satisfied

* * *

System: Fibroblast
Experiment: Multiplex assay against human fibroblast
Assay type: toxicity, cell-based
Details: 12 h, 10 µM, compound concentration 10 uM, replicate 1
Reported Population Normal (%) by item:
Just the number please, in %, no unit attached.

Reference set, count: 4
molecule: COc1ccccc1N1CCN(C[C@@H](C(=O)NC(C)(C)C)c2ccccc2)CC1.Cl.Cl
Population Normal (%): 94
//
molecule: Cl.NCCc1ccc(O)c(O)c1 [DOPAMINE HYDROCHLORIDE]
Population Normal (%): 96
//
molecule: NCCc1cn(S(=O)(=O)c2c(Cl)nc3sccn23)c2ccccc12.O=C(O)C(=O)O
Population Normal (%): 93
//
molecule: CC(/C=C1\SC(=S)N(CCCC(=O)Nc2ccc(C(=O)O)c(O)c2)C1=O)=C\c1ccccc1
Population Normal (%): 97

# ---- query molecule ----
Simply: `CN1CCN(c2cc(-c3ccccc3)nc(N)n2)CC1` , Fibroblast, Population Normal (%) = 97

* * *

Tested on: Fibroblast
Assay: Multiplex assay against human fibroblast
Type: toxicity, cell-based
Details: 24 h, 1 µM, compound concentration 1 uM, replicate 2
measured_property: Population Membrane Permeable-Phenotype (%)
Just the number please, in %, no unit attached.

Reference set, count: 4
molecule: CN[C@@H](C)C(=O)N[C@H](C(=O)N1CCC[C@H]1C(=O)Nc1snnc1-c1ccccc1)C1CCCCC1 [GDC-0152]
numeric_readout: 2

molecule: O=C(CCCc1ccccc1)Nc1nc2ccccc2c(=O)s1
numeric_readout: 4

molecule: CC(C)c1noc(N2CCC(COc3ccc(-c4ccc(S(C)(=O)=O)cc4)nc3)CC2)n1 [GSK-1292263]
numeric_readout: 4

molecule: CC(C)COc1ccc(CNC(=O)N(Cc2ccc(F)cc2)C2CCN(C)CC2)cc1 [PIMAVANSERIN]
numeric_readout: 4

Value of Population Membrane Permeable-Phenotype (%) reported for the molecule `CCCCC(=O)N(Cc1ccc(-c2ccccc2-c2nnn[nH]2)cc1)[C@H](C(=O)O)C(C)C` is 2

Value of Population Membrane Permeable-Phenotype (%) reported for the molecule `Cc1noc(-c2ccc(-c3ccc(CC(=O)O)cc3)cc2)c1NC(=O)O[C@H](C)c1ccccc1Cl` is 1

* * *

Tested on: U2OS
Assay: Multiplex assay against U2OS
Type: toxicity, cell-based
Settings: human, 12 h, 10 µM, compound concentration 10 uM, replicate 1
Categories are defined by ranges of Population Pyknosed Nuclei (%), namely Low = under 7%, Mid = from 7% up to 10%, High = 10% and over

Some solved entries appear below for comparison.
compound: CCCOc1ccc2[nH]cc(C3=CCNCC3)c2n1.Cl
class_label: Mid
--
compound: CCc1cc2cc(NS(=O)(=O)c3ccc(C#N)cc3)ccc2n(CC)c1=O
class_label: Low
--
compound: N#Cc1cc(F)cc(-c2nc(-c3ccc(F)cn3)no2)c1
class_label: Low
--
compound: CCCCC1=NC2(CCCC2)C(=O)N1Cc1ccc(-c2ccccc2-c2nnn[nH]2)cc1
class_label: Mid
--
compound: COC[C@@H](c1ccc(C(F)(F)F)cc1)N1CCN(C2(C)CCN(C(=O)c3c(C)ncnc3C)CC2)C[C@@H]1C.O=C(O)/C=C\C(=O)O [VICRIVIROC MALEATE]
class_label: Mid

The entry to classify is `CC(C)COc1ccc(CNC(=O)N(Cc2ccc(F)cc2)C2CCN(C)CC2)cc1` ; which class holds it?
High

The entry to classify is Cc1sc2c(c1C)C(c1ccc(Cl)cc1)=N[C@@H](CC(=O)NCCCCCCCCNC(=O)COc1cccc3c1C(=O)N(C1CCC(=O)NC1=O)C3=O)c1nnc(C)n1-2 (stereo partly drawn) ; which class holds it?
High

The entry to classify is `Cc1onc(-c2ccccc2Cl)c1C(=O)N(C)c1ccc(Cl)cc1` ; which class holds it?
High

The entry to classify is `NCCc1cn(S(=O)(=O)c2c(Cl)nc3sccn23)c2ccccc12.O=C(O)C(=O)O` ; which class holds it?
High

The entry to classify is `O=C(CCCc1ccccc1)Nc1nc2ccccc2c(=O)s1` ; which class holds it?
Mid

The entry to classify is `O=C1[C@H](Cc2ccc(O)cc2)N2C(=O)CCN(C(=O)NCc3ccccc3)[C@H]2CN1Cc1cccc2ccccc12` ; which class holds it?
High

The entry to classify is Br.CS(=O)(=O)Nc1c(O)ccc2c1CCCC2C1=NCCN1 (stereo not drawn) ; which class holds it?
Low

The entry to classify is `CCCCC(=O)N(Cc1ccc(-c2ccccc2-c2nnn[nH]2)cc1)[C@H](C(=O)O)C(C)C` ; which class holds it?
Mid
